Molecular target: human cathepsin K (UniProt P43236)
Assay: Cathepsin K Assay (hrbCat K)
Format: biochemical
Conditions: Z-Leu-Arg-AMC substrate, pH 5.5, 15 min preincubation; read-out: hrbCat K (IP (nM))
Measured IC50, listed per entry.

{"columns": ["compound", "tgt", "IC50 [nM]"],
 "data": [
  ["N#CC1(NC(=O)[C@@H]2C[C@@H](F)CC[C@H]2c2nc(-c3ccc(F)cn3)sc2-c2ccc(N3CCS(=N)(=O)CC3)cc2)CC1", "human cathepsin K (UniProt P43236)", 2.3],
  ["N#CC1(NC(=O)[C@@H]2CCCC[C@H]2c2nc(-c3cncc(Cl)c3)sc2-c2ccc(N3CCS(=O)(=O)CC3)cc2)CC1", "human cathepsin K (UniProt P43236)", 0.8],
  ["Cc1nc([C@@H]2CC[C@H](F)C[C@H]2C(=O)N[C@@H](C)C#N)c(-c2ccc(N3CCC(S(C)(=O)=O)CC3)cc2)s1", "human cathepsin K (UniProt P43236)", 4.7],
  ["N#CC1(NC(=O)[C@@H]2CCCC[C@H]2c2nc(-c3ccc(F)cc3)sc2-c2ccc(N3CCS(=N)(=O)CC3)cc2)CC1", "human cathepsin K (UniProt P43236)", 1.9],
  ["N#CC1(NC(=O)[C@@H]2C[C@@H](F)CC[C@H]2c2nc(-c3cccnc3)sc2-c2ccc(N3CCS(=O)(=O)CC3)cc2)CC1", "human cathepsin K (UniProt P43236)", 1.1],
  ["N#CC1(NC(=O)[C@@H]2CC3CC3C[C@H]2c2nc(-c3cncc(F)c3)sc2-c2ccc(N3CCS(=O)(=O)CC3)cc2)CC1 (single isomer, unassigned) [Compound 4]", "human cathepsin K (UniProt P43236)", 0.9],
  ["N#CC1(NC(=O)[C@@H]2CCCC[C@H]2c2nc(N)sc2-c2ccc(N3CCS(=O)(=O)CC3)cc2)CC1", "human cathepsin K (UniProt P43236)", 13.2],
  ["CN(c1nc([C@@H]2CCCC[C@H]2C(=O)NC2(C#N)CC2)c(-c2ccc(N3CCS(=O)(=O)CC3)cc2)s1)S(=O)(=O)c1ccccc1", "human cathepsin K (UniProt P43236)", 1.2],
  ["N#CC1(NC(=O)[C@@H]2CCCC[C@H]2c2nc(Oc3ccc(F)cc3)sc2-c2ccc(N3CCS(=O)(=O)CC3)cc2)CC1", "human cathepsin K (UniProt P43236)", 5.1],
  ["N#CC1(NC(=O)[C@@H]2C[C@@H](F)CC[C@H]2c2nc(C3(C(F)(F)F)CC3)sc2-c2ccc(N3CCS(=O)(=O)CC3)cc2)CC1", "human cathepsin K (UniProt P43236)", 5],
  ["C[C@H](C#N)NC(=O)[C@@H]1C[C@@H](F)CC[C@H]1c1nc(-c2ccc(F)cn2)sc1-c1ccc(N2CCS(=O)(=O)CC2)cc1", "human cathepsin K (UniProt P43236)", 25.5],
  ["CC(C)(c1ccccc1)c1nc([C@@H]2CCCC[C@H]2C(=O)NC2(C#N)CC2)c(-c2ccc(N3CCS(=O)(=O)CC3)cc2)s1", "human cathepsin K (UniProt P43236)", 5.1],
  ["N#CC1(NC(=O)[C@@H]2C[C@@H](F)CC[C@H]2c2nc(-c3ccc(F)cc3)sc2-c2ccc(N3CCS(=N)(=O)CC3)cc2)CC1", "human cathepsin K (UniProt P43236)", 3.2],
  ["N#CC1(NC(=O)[C@@H]2C[C@@H](F)CC[C@H]2c2nc(-c3ccc(F)cn3)sc2-c2ccc(N3CCS(=O)(=O)CC3)cc2)CC1", "human cathepsin K (UniProt P43236)", 1.2],
  ["CC1(C)CN(c2nc([C@@H]3CCCC[C@H]3C(=O)NC3(C#N)CC3)c(-c3ccc(N4CCS(=O)(=O)CC4)cc3)s2)CCO1", "human cathepsin K (UniProt P43236)", 5.8],
  ["CC(C)(C)c1nc([C@@H]2CCCC[C@H]2C(=O)NCC#N)c(-c2ccc(N3CCS(=O)(=O)CC3)cc2)s1", "human cathepsin K (UniProt P43236)", 0.7],
  ["CCC(C#N)NC(=O)[C@@H]1CCCC[C@H]1c1nc(-c2ccc(F)cn2)sc1-c1ccc(N2CCS(=O)(=O)CC2)cc1 (single isomer, unassigned) [Example 192]", "human cathepsin K (UniProt P43236)", 0.4],
  ["N#CC1(NC(=O)[C@@H]2CC(F)(F)CC[C@H]2c2nc(-c3ccc(F)cc3)sc2-c2ccc(C(=O)N3CCC(O)CC3)cc2)CC1", "human cathepsin K (UniProt P43236)", 3.4],
  ["N#CC1(NC(=O)[C@@H]2CCCC[C@H]2c2nc(C3CCS(=O)(=O)CC3)sc2-c2ccc(N3CCS(=O)(=O)CC3)cc2)CC1", "human cathepsin K (UniProt P43236)", 4.6],
  ["Cc1ccc(-c2nc([C@@H]3CCCC[C@H]3C(=O)NC3(C#N)CC3)c(-c3ccc(N4CCS(=O)(=O)CC4)cc3)s2)nn1", "human cathepsin K (UniProt P43236)", 1.4],
  ["N#CC1(NC(=O)[C@@H]2CCCC[C@H]2c2nc(-c3cccc(F)c3F)sc2-c2ccc(N3CCS(=O)(=O)CC3)cc2)CC1", "human cathepsin K (UniProt P43236)", 2.1],
  ["CC(C)(C)c1nc([C@@H]2CCC(F)(F)C[C@H]2C(=O)NC2(C#N)CC2)c(-c2ccc(N3CCS(=O)(=O)CC3)cc2)o1", "human cathepsin K (UniProt P43236)", 0.7],
  ["N#CC1(NC(=O)[C@@H]2CC3CC3C[C@H]2c2nc(-c3cncc(F)c3)sc2-c2ccc(N3CCS(=O)(=O)CC3)cc2)CC1 (single isomer, unassigned) [Compound 3]", "human cathepsin K (UniProt P43236)", 0.7],
  ["CCC(C#N)NC(=O)[C@@H]1CCCC[C@H]1c1nc(-c2ccc(F)cn2)sc1-c1ccc(N2CCS(=O)(=O)CC2)cc1 (single isomer, unassigned) [Example 188]", "human cathepsin K (UniProt P43236)", 15.3]
]}
